study-target: human full-length MKNK1 (Homo sapiens (Human), UniProt Q9BUB5, T344D)
Sequence (Q9BUB5 other isoform, or with tags, fused parts or gaps T344D): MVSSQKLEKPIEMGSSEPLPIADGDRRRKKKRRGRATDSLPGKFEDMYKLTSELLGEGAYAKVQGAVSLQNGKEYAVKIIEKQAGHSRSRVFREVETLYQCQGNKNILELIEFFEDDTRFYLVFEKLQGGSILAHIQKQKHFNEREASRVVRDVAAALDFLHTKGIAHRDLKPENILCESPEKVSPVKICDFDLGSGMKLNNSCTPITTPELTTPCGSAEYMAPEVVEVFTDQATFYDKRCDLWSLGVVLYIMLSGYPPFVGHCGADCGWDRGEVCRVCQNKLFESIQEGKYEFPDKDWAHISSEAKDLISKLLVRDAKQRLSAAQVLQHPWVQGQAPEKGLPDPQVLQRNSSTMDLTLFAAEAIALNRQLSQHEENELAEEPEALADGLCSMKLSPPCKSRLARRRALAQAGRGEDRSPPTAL
method-summary: MKNK1 kinase high ATP assay (TR-FRET)
Type: biochemical
protocol-conditions: high ATP (2 mM final), 15 min preincubation with enzyme
pIC50: −log10 of the molar value.
value-kind: pIC50

compound	study-target	pIC50
O=C(C1CCc2c(sc3ncnc(Nc4ccc5[nH]c(=O)sc5c4)c23)C1)N1CCC1 (racemic)	human full-length MKNK1 (Homo sapiens (Human), UniProt Q9BUB5, T344D)	7.15
CC(C)CNC(=O)C1CCc2c(sc3ncnc(Nc4ccc5[nH]c(=O)sc5c4)c23)C1 (racemic)	human full-length MKNK1 (Homo sapiens (Human), UniProt Q9BUB5, T344D)	7.40
O=C(C1CCc2c(sc3ncnc(Nc4ccc5[nH]c(=O)sc5c4)c23)C1)N1CCN(Cc2ccccc2)CC1 (stereo not shown)	human full-length MKNK1 (Homo sapiens (Human), UniProt Q9BUB5, T344D)	7.36
O=C(Nc1ccccc1)C1CCc2c(sc3ncnc(Nc4ccc5[nH]c(=O)sc5c4)c23)C1 (racemic)	human full-length MKNK1 (Homo sapiens (Human), UniProt Q9BUB5, T344D)	7.48
COC1CCCN(C(=O)C2CCc3c(sc4ncnc(Nc5ccc6[nH]c(=O)sc6c5)c34)C2)C1 (racemic)	human full-length MKNK1 (Homo sapiens (Human), UniProt Q9BUB5, T344D)	7.52

[a] O=C(NCc1ccccc1)C1CCc2c(sc3ncnc(Nc4ccc5[nH]c(=O)sc5c4)c23)C1 (racemic)
[b] CC1CCc2c(sc3ncnc(Nc4ccc5[nH]c(=O)sc5c4)c23)C1 (racemic)
[c] CCNC(=O)C1CCc2c(sc3ncnc(Nc4ccc5[nH]c(=O)sc5c4)c23)C1 (racemic)
[d] COCC1(OC)CCc2c(sc3ncnc(Nc4ccc5[nH]c(=O)sc5c4)c23)C1 (racemic)
[e] O=C(CN1CCN(C(=O)C2CCc3c(sc4ncnc(Nc5ccc6[nH]c(=O)sc6c5)c34)C2)CC1)N1CCCC1 (racemic)
Q. List by increasing pIC50. Rank them, then answer with their labels in that order.
A. d, b, e, c, a
(d: 6.52, b: 6.89, e: 7.16, c: 7.41, a: 8.05)

[P] NCC1CCc2c(sc3ncnc(Nc4ccc5[nH]c(=O)sc5c4)c23)C1 (racemic)
[Q] N#CC1CN(C(=O)C2CCc3c(sc4ncnc(Nc5ccc6[nH]c(=O)sc6c5)c34)C2)C1 (racemic)
Q. Field: entry with larger pIC50 (options P / Q ). Field: selected label. Fill in the label of the entry you choose.
A. Q

###

study-target: human full-length MKNK1 (Homo sapiens (Human), UniProt Q9BUB5, T344D)
method-summary: MKNK1 kinase high ATP assay (TR-FRET)
protocol-conditions: high ATP (2 mM final), 15 min preincubation with enzyme
pIC50: −log10 of the molar value.
value-kind: pIC50

compound	pIC50
CC(C)S(=O)(=O)NCC1CCc2c(sc3ncnc(Nc4ccc5[nH]c(=O)sc5c4)c23)C1 (racemic)	6.86
CCCCN(CC#N)C(=O)C1CCc2c(sc3ncnc(Nc4cc5sc(=O)[nH]c5cc4OC)c23)C1 (racemic)	9.00
CN(C)C1CCN(C(=O)C2CCc3c(sc4ncnc(Nc5ccc6[nH]c(=O)sc6c5)c34)C2)C1 (racemic)	7.47
O=C(NCC1CC1)C1CCc2c(sc3ncnc(Nc4ccc5[nH]c(=O)sc5c4)c23)C1 (racemic)	7.32
O=C(NCC1CCc2c(sc3ncnc(Nc4ccc5[nH]c(=O)sc5c4)c23)C1)[C@@H](O)Cc1ccccc1 (mixture of isomers)	7.37
O=C(C1CCc2c(sc3ncnc(Nc4ccc5[nH]c(=O)sc5c4)c23)C1)N1CCCC(O)C1 (racemic)	7.28
O=C(NC1CC1)C1CCc2c(sc3ncnc(Nc4ccc5[nH]c(=O)sc5c4)c23)C1 (racemic)	7.24
CN(C)C(=O)C1CCc2c(sc3ncnc(Nc4ccc5[nH]c(=O)sc5c4)c23)C1 (racemic)	7.39
COc1cc2[nH]c(=O)sc2cc1Nc1ncnc2sc3c(c12)CCC(C(=O)O)C3 (stereo not drawn)	7.38
O=C(C1CCc2c(sc3ncnc(Nc4ccc5[nH]c(=O)sc5c4)c23)C1)N1CCN(Cc2ccc3c(c2)OCO3)CC1 (racemic)	7.17

[1] CC(C)OC(=O)NCC1CCc2c(sc3ncnc(Nc4ccc5[nH]c(=O)sc5c4)c23)C1 (racemic)
[2] CC(C)C(=O)NCC1CCc2c(sc3ncnc(Nc4ccc5[nH]c(=O)sc5c4)c23)C1 (racemic)
[3] CCCN(CCOC)C(=O)C1CCc2c(sc3ncnc(Nc4ccc5[nH]c(=O)sc5c4)c23)C1 (racemic)
Q. Sequence the entries by pIC50, beginning with the highest number. Reply: labels, ordered per the request.
A. 3, 2, 1
(3: 7.72, 2: 7.43, 1: 7.21)

[a] [N-]=[N+]=NCC1CCc2c(sc3ncnc(Nc4ccc5[nH]c(=O)sc5c4)c23)C1 (racemic)
[b] CN(C(=O)C1CCc2c(sc3ncnc(Nc4ccc5[nH]c(=O)sc5c4)c23)C1)C1CCOC(C)(C)C1 (racemic)
Q. # returns the entry with the larger pIC50; inputs a and b Your answer should be the label of the entry you select.
A. b
(b: 7.38, a: 7.03)
